Could you please report measured melting point for the items listed next?

// melting point lookup, key: `Clc1cccc(CSc2nnc(-c3ccc4occc4c3)o2)c1`
125 to 126 °C

Try the compound CCOCC1Cc2cc(S(N)(=O)=O)c(Cl)c(Cl)c2O1 (stereo not drawn)
148 to 149 °C

Try the compound `O=[N+]([O-])c1cc(Oc2ccccc2)ccc1OCc1ccccc1`
84 to 87 °C

Try the compound Cc1cccc(-c2nc(-c3ccc(S(C)=O)cc3)sc2-c2ccnc(C)c2)c1 (stereo not drawn)
128 to 130 °C

Try the compound `COC(=O)c1c(OC(C)=O)cc2cc(Br)ccc2c1C`
78 °C

Try the compound `CCOC(=O)c1cc(CC)sc1Nc1cc(F)cc(F)c1[N+](=O)[O-]`
74 to 75 °C

Try the compound `Cc1nc(-c2ccccc2)cc(-c2ccc([N+](=O)[O-])cc2)c1C(=O)O`
260 to 263 °C

Try the compound `COc1cccc(NC(=O)C(N)=S)c1`
135 °C

Try the compound CC(Cl)(Cl)CC(O)(Cn1cncn1)c1ccc(Cl)cc1 (stereo not drawn)
106 °C

Try the compound `CN1C(=O)[C@H](NC(=O)CNc2ccc(C(F)(F)F)cc2)N=C(c2ccccc2)c2ccccc21`
218 to 219 °C

Try the compound CC(C)(C)OC(=O)C(ON1CCNC1=Nc1c(Cl)cccc1Cl)c1ccccc1 (stereo not drawn)
88 to 90 °C

Try the compound `COc1ccc(C=Cc2nc(CCl)co2)cc1`
148 to 151 °C

Try the compound `O=[N+]([O-])c1ccc(-n2nc3c(c2O)-c2ccccc2CC3)nc1`
226 to 227 °C

Try the compound COCC(=O)NC(CC(=O)Nc1n[nH]c(=S)s1)c1ccccc1 (stereo not drawn)
241 to 242 °C

Try the compound `C=C(Cl)COc1cc(C)nc(NCCCCCC)n1`
36 to 37 °C

Try the compound CCCN1N=C2C(=Cc3cccc(C(F)(F)F)c3)CS(=O)(=O)CC2C1c1cccc(C(F)(F)F)c1 (stereo not drawn)
190 to 191 °C

Try the compound `COC(=O)c1nc(Cl)c(Cl)c(Cl)c1I`
61 to 62 °C

Try the compound CC1=C(C(=O)c2ccc(C(F)(F)F)cc2)C(=O)C2C=CC=CC2C1=O (stereo not drawn)
155 to 156 °C

* * *

parameter: melting point

// melting point lookup, key: `Cc1cc(Cl)cc(C#N)c1`
132 to 133 °C

Try the molecule `Nc1c(Br)cc(-n2cnnc2)cc1C(F)(F)F`
202 to 203 °C

Try the molecule Cc1ccc2c(c1)C=Cc1cc(C(C)C)ccc1C2c1cn(Cc2ccc(C(=O)O)o2)c(=O)[nH]c1=O (stereo unspecified)
150 to 160 °C

Try the molecule `O=C1Nc2cccnc2N(C(=O)CN2CCN(CCN3CCOCC3)CC2)c2ccccc21`
227 to 229 °C

Try the molecule `COc1ccc(-c2ccnc3c(C(=O)c4cccs4)cnn23)cc1NC(=O)CC(C)C`
192 to 194 °C

Try the molecule `CCOC(=O)c1ccc2c(c1)C(=CCCI)CN2`
81 °C

Try the molecule `COc1cc(NC(=O)OC(C)(C)C)cc(OC)c1SC`
124 to 126 °C

Try the molecule `O=C(O)CCn1c2ccc(O)cc2c2c3c(c(-c4ccccc4Cl)cc21)C(=O)NC3=O`
286 °C

Try the molecule `CC(=O)Nn1c(-c2ccccc2)nc2cc(C(F)(F)F)ccc21`
150 to 154 °C

Try the molecule `CNC(=O)c1cccc(Cl)c1Nc1nc(Nc2ccc3c(c2)CCCC(=O)N3C)ncc1Cl`
145 to 160 °C

Try the molecule `CN(CCCCCCC(=O)O)c1cnc(-c2ccccc2)c(-c2ccccc2)n1`
114 to 118 °C

Try the molecule `CS(=O)(=O)c1ccc(-n2nc(C(=O)N3CCOCC3)cc2-c2ccc(-c3ccco3)cc2)cc1F`
221 to 222 °C

Try the molecule `Cc1ccc(N(c2ccc(C)cc2)c2c(C)cc(-c3cc(C)c(N(c4ccc(C)cc4)c4ccc5ccc6cccc7ccc4c5c67)c(C)c3)cc2C)cc1`
198 to 199 °C

Try the molecule `O=CC=Cc1c(C2CC2)nc2ccccc2c1-c1ccc(F)cc1`
146 to 147 °C

Try the molecule `O=C1c2ccccc2S(=O)(=O)N1CSc1nnc(SCCN2CCCCC2)s1`
100 to 101 °C

Try the molecule `COc1ccc(NC(=O)NCCCOc2cccc(CN3CCCCC3)c2)cc1`
111 to 112 °C

Try the molecule `CC(=O)N[C@@H](C)c1ccc(C(=O)O)cc1`
186 to 190 °C

Try the molecule `CC(C)(C)NC(=O)NCC#N`
128 to 132 °C

Try the molecule `N#Cc1nn(-c2c(Cl)cc(C(F)(F)F)cc2Cl)c(N)c1C(=O)CBr`
190 to 192 °C

Try the molecule `O=C(NCCN(CCNC(=O)OCCO)c1nc(Cl)nc(N(CCNC(=O)OCCO)CCNC(=O)OCCO)n1)OCCO`
174 °C

Try the molecule `CCc1cn(C[C@@H](C)O)c2cc(Cl)c(F)cc12`
112 to 114 °C

Try the molecule `Cn1c(C(F)(F)F)cc(=O)n(-c2c(F)cc(Cl)c3cc(C=O)oc23)c1=O`
180 to 183 °C

Try the molecule `NC(CO)(CO)C(=O)O`
109 to 112 °C

Try the molecule `CCCCCCCCCCCCCCCCCCOc1ccc(O)c(C(=O)OC)c1`
53 to 54 °C

Try the molecule CC(C)(C)C(O)(CC#CBr)C(Oc1ccc(Cl)cc1)n1cncn1 (stereo unspecified)
156 to 160 °C

Try the molecule O=C(NCCCC(c1cc(F)ccc1F)S(=O)(=O)c1ccc(Cl)cc1)OCCI (stereo unspecified)
100 to 101 °C

* * *

Could you please report measured melting point for the items listed next?

// melting point lookup, key: `CSC(=NCCN1CCC(c2noc3cc(F)ccc23)CC1)NC#N`
148 to 151 °C

Try the molecule CCOC(=O)C1=C(C)NC(N)=C(C(=O)OCCOC)C1c1cccc([N+](=O)[O-])c1 (stereo not drawn)
174 °C

Try the molecule `Cc1cccc(SCn2cc(Br)cnc2=O)c1`
164 °C

Try the molecule `N#CC(C#N)=C(NCCN1CCCCC1)N1CCC(N2CCCCC2)CC1`
198 to 200 °C

Try the molecule `CCc1cc(OCc2ccccc2)ccc1C(=O)NNC(=O)Cc1cccc(O)c1`
190 to 191 °C

Try the molecule COc1ccccc1CNC1CCN(C2CCN(C(=O)c3cc(C)cc(C)c3)C(Cc3ccccc3)C2)CC1 (stereo not drawn)
71.2 °C

Try the molecule `COC(=O)c1ccc2c(=O)n(CC(C)C)c(CNC(=O)OC(C)(C)C)c(-c3ccccc3F)c2c1`
180 to 181 °C

Try the molecule `CCOC(=O)Cc1ccc(Nc2ccnc(Nc3cc(OC)c(OC)c(OC)c3)n2)cc1`
143 to 144 °C

Try the molecule `CC(C)(CC(C)(Sc1cc(C(C)(C)C)c(O)c(C(C)(C)C)c1)Sc1cc(C(C)(C)C)c(O)c(C(C)(C)C)c1)Sc1cc(C(C)(C)C)c(O)c(C(C)(C)C)c1`
93 to 115 °C

Try the molecule `COc1ccccc1NC(=O)Nc1nc(Nc2ccccc2-c2ccccc2)nc(N(CCC(=O)O)Cc2ccc(-c3ccccc3)cc2)n1`
144 to 147 °C

Try the molecule CCOC(=O)C1Cc2c(c(Cl)cc3c(-c4ccccc4)noc23)O1 (stereo not drawn)
123 to 125 °C

Try the molecule `COc1ccc(CCl)cc1OCc1nc(-c2ccco2)oc1C`
115 to 116 °C

Try the molecule `CCCCCc1c(C(C)C)nc(C(C)C)c(CNCC)c1-c1ccc(F)cc1`
48 to 50 °C

* * *

parameter: melting point

// melting point lookup, key: `Cc1ccc(S(=O)(=O)Oc2ccc3nc(S(N)(=O)=O)sc3c2)cc1`
142 °C

Try the compound `Clc1ccc2c(c1)C(c1ccccc1)=NCc1nnc(Cc3ccccc3)n1-2`
190 to 192 °C

Try the compound `CSc1nn2c(N)ncnc2c1S(=O)(=O)c1ccccc1`
> 280 °C

Try the compound c1cncc(C2=NOC(C3CC3)(N3CCCC3)C2)c1 (stereo unspecified)
90 to 92 °C

Try the compound `CCn1nc(-c2cccs2)c(C(=O)OCCOC(C)=O)c(Nc2cncc3ccccc23)c1=O`
155 to 157 °C

Try the compound `COc1cc(OC)c(-c2cc3ccccc3n2C)cc1C=CC(=O)c1ccc(S(N)(=O)=O)cc1`
148 to 150 °C

Try the compound `CCOC(=O)c1c(=O)c2cc3c(cc2n2c(C)csc12)OCO3`
308 to 311 °C

Try the compound `CC1(C)CCC(C)(C)c2cc(C(=O)COc3ccc(C(=O)OCc4ccccc4)c(O)c3)ccc21`
103 to 104 °C

Try the compound `CCc1[nH]c(=O)[nH]c1C(=O)C(C)C`
206 to 208 °C

Try the compound O=C1NC(SCC#CCc2ccccc2)C1NC(c1ccccc1)(c1ccccc1)c1ccccc1 (stereo unspecified)
145 to 146 °C

Try the compound `C#CC[C@H](c1nc2cccnc2c(=O)n1Nc1ccccc1)N(CCCN)C(=O)c1cc(F)c(F)c(F)c1F`
180 to 182 °C

Try the compound Cc1cc2c(cc1C)C(=O)C(CN1CCC3(CC1)C(=O)NCN3c1ccccc1)CC2 (stereo unspecified)
182 to 183 °C

Try the compound `CC(=O)c1noc2cc(O)ccc12`
159 to 161 °C

Try the compound `O=Cc1cc(-c2ccc(O)c(O)c2)c2cc(O)c(O)cc2c1O`
> 300 °C

Try the compound `CCCCOC(=O)c1ccc(N(C)C=Nc2ccc(C(=O)OCC)cc2)cc1`
83 to 85 °C

Try the compound `COC(CNc1nc(C)nc2cccc(C)c12)OC`
48 to 49 °C
